Target: Human TLR7 (Homo sapiens, UniProt Q9NYK1)
Sequence (Q9NYK1 27-1049): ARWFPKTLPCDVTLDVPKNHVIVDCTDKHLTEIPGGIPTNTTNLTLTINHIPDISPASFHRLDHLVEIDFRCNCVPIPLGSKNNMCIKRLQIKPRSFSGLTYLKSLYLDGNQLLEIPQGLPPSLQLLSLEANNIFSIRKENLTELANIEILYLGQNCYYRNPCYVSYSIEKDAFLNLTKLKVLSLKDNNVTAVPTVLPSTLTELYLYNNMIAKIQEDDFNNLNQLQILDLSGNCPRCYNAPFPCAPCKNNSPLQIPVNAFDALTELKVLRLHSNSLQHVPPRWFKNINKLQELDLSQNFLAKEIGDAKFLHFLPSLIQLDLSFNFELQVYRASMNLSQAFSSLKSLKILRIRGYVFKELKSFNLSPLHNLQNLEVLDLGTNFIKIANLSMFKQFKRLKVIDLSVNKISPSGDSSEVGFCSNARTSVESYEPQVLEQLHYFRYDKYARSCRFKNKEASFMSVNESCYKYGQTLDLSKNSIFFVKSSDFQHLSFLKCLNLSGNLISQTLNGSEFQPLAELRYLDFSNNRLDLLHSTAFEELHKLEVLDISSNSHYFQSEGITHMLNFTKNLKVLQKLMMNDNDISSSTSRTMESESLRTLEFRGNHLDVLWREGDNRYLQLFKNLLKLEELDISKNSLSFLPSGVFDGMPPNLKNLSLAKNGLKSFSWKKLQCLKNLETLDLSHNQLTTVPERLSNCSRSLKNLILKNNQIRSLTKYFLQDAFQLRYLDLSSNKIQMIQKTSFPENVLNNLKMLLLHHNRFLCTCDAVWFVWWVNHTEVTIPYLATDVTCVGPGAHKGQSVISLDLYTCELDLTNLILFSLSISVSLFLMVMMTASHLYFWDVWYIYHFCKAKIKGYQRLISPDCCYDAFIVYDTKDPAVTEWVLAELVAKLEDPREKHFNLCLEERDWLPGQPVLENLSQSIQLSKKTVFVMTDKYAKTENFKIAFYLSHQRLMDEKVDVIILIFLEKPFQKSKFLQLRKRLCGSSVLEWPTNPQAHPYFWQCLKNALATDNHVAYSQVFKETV
Assay: Human TLR7 reporter assay (NF-kB-SEAP, HEK293 cells)
Conditions: hTLR7/seap-293 cells (HEK293, NF-kB-SEAP reporter), 20 hours incubation, 1 nM-10 μM, absorbance 405 nm; read-out: human TLR7 binding activity (EC50)
Checkbox rule: EC50 lower than 9 nM = Criterion met; EC50 not lower than 9 nM = Criterion not met.

Here are 5 compounds together with their reported answers.
sample_smiles=CCCCOc1nc(N)c2[nH]c(=O)n(Cc3ccc(OCC4CCN(CC(=O)OCCCCN(C)C)CC4)cc3)c2n1 class_label="Criterion met"
sample_smiles=CCCCOc1nc(N)c2[nH]c(=O)n(Cc3ccc(CN(C)CC(=O)OC)cc3OC)c2n1 class_label="Criterion not met"
sample_smiles=CCCCOc1nc(N)c2[nH]c(=O)n(Cc3ccc(OCCCCN(C)CC(=O)OCCCCN(C)C)nc3)c2n1 class_label="Criterion met"
sample_smiles=CCCCOc1nc(N)c2[nH]c(=O)n(Cc3ccc(CCN(C)CC(=O)OC)cc3)c2n1 class_label="Criterion not met"
sample_smiles=CCCCOc1nc(N)c2[nH]c(=O)n(Cc3ccc(OCCCCN4CCC(C(=O)OCCCCN(C)C)CC4)cc3)c2n1 class_label="Criterion met"

Report whether reported EC50 is lower than 9 nM (strictly) for CCCCOc1nc(N)c2[nH]c(=O)n(Cc3ccc(OCCCCN4CCC(C(=O)OC)CC4)nc3)c2n1
Criterion met

Confirm or reject: EC50 of CCCCOc1nc(N)c2[nH]c(=O)n(Cc3ccc(CCN4CCC(C(=O)OC)CC4)cc3)c2n1 lies strictly below 9 nM
Criterion met

* * *

Biological target: Human TLR7 (Homo sapiens, UniProt Q9NYK1)
Experiment: Human TLR7 reporter assay (NF-kB-SEAP, HEK293 cells)
Conditions: hTLR7/seap-293 cells (HEK293, NF-kB-SEAP reporter), 20 hours incubation, 1 nM-10 μM, absorbance 405 nm; read-out: human TLR7 binding activity (EC50)
Binary call on EC50 with cut-off 6 nM: strictly below means y, and equality or higher means n.

Check out these entries, answers already filled in.
sample_smiles=CCCCOc1nc(N)c2[nH]c(=O)n(Cc3ccc(CN(C)CC(=O)OC)cc3)c2n1 class_label=n
sample_smiles=CCCCOc1nc(N)c2[nH]c(=O)n(Cc3ccc(OCC4CCN(CC(=O)OC)CC4)cc3)c2n1 class_label=y
sample_smiles=CCCCOc1nc(N)c2[nH]c(=O)n(Cc3ccc(CN(C)CC(=O)OCCCCN(C)C)cc3OC)c2n1 class_label=n
sample_smiles=CCCCOc1nc(N)c2[nH]c(=O)n(Cc3ccc(OCCCCN4CCC(C(=O)OC)CC4)cc3)c2n1 class_label=y
sample_smiles=CCCCOc1nc(N)c2[nH]c(=O)n(Cc3ccc(OCCCN(C)CC(=O)OC)cc3)c2n1 class_label=n
sample_smiles=CCCCOc1nc(N)c2[nH]c(=O)n(Cc3ccc(OCCCCN(C)CC(=O)OC)nc3)c2n1 class_label=y

For CCCCOc1nc(N)c2[nH]c(=O)n(Cc3ccc(CCCN(C)CC(=O)OC)cc3)c2n1 , is the recorded EC50 below the cut-off of 6 nM?
n

Answer whether the compound COCCOc1nc(N)c2[nH]c(=O)n(Cc3ccc(CN(C)CC(=O)OC)cc3)c2n1 has EC50 strictly less than 6 nM
n
